Assay: Half life in po dosed rat
Type: ADME, organism-based
Conditions: in vivo
measured_metric: half-life (min)
Answer in min, number only, no unit symbol.

Given the entry CN(c1ccc(NC(=O)C(C)(O)C(F)(F)F)c(Cl)c1)S(=O)(=O)c1ccc(C#N)cc1 (stereo unspecified) , report its measured half-life. 264

###

Molecular target: Oxysterols receptor LXR-alpha (Homo sapiens)
Sequence (Q13133 whole entry, the tested form may be a part): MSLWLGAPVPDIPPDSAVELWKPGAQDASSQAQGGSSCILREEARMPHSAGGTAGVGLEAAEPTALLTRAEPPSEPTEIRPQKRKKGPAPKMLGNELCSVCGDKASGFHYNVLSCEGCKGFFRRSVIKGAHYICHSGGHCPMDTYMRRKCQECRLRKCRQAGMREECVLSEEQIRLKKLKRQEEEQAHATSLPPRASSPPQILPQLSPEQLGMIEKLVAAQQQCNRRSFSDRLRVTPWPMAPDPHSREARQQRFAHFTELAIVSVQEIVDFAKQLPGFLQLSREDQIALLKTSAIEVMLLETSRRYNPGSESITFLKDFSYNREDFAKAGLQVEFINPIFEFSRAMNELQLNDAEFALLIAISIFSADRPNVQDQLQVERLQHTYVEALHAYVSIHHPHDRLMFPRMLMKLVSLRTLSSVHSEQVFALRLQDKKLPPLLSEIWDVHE
Experiment: Agonist activity at human LXRalpha expressed in human SH-SY5Y cells co-transfected with Gal4-LBD after 24 hrs by luciferase reporter gene assay
Format: functional, cell-based
pEC50: −log10 of the molar value.
measured_metric: pEC50

Record CN(c1ccc(NC(=O)C(C)(O)C(F)(F)F)c(Cl)c1)S(=O)(=O)c1ccc(C#N)cc1 (stereo not drawn) : what is its pEC50 with Oxysterols receptor LXR-alpha (Homo sapiens)? 5.30

State its pEC50 on Oxysterols receptor LXR-alpha (Homo sapiens): C=CCN(c1ccc(NC(=O)C(C)(O)C(F)(F)F)c(Cl)c1)S(=O)(=O)c1ccccc1Cl (stereo not drawn) < 4.52

Form entry - test system: Oxysterols receptor LXR-alpha (Homo sapiens); read-out: pEC50; compound: CC(O)(C(=O)Nc1ccc(N(Cc2ccccc2)S(=O)(=O)c2ccccc2Cl)cc1Cl)C(F)(F)F (stereo not drawn) < 4.52

What is its pEC50 for Oxysterols receptor LXR-alpha (Homo sapiens)? Entry: Cc1ccc(S(=O)(=O)N(C)c2ccc(NC(=O)[C@](C)(O)C(F)(F)F)c(Cl)c2)cc1 5.30

// fetch Oxysterols receptor LXR-alpha (Homo sapiens) pEC50 for CC(O)(C(=O)Nc1ccc(N(CC2CC2)S(=O)(=O)c2ccccc2Cl)cc1Cl)C(F)(F)F (stereo not drawn) < 4.52

Could you share what pEC50 was measured for COC(=O)CCc1ccc(S(=O)(=O)N(C)c2ccc(NC(=O)C(C)(O)C(F)(F)F)c(Cl)c2)cc1 (stereo not drawn) , tested on Oxysterols receptor LXR-alpha (Homo sapiens)? < 4.52

Please state recorded pEC50 (tested on Oxysterols receptor LXR-alpha (Homo sapiens)) of COC(=O)c1ccc(S(=O)(=O)N(C)c2ccc(NC(=O)C(C)(O)C(F)(F)F)c(Cl)c2)cc1 (stereo not drawn) 5.44

Notebook entry, Oxysterols receptor LXR-alpha (Homo sapiens) assay: pEC50 of CN(c1ccc(NC(=O)C(C)(O)C(F)(F)F)c(Cl)c1)S(=O)(=O)c1ccc(CCC(=O)O)cc1 (stereo not drawn) = ? < 4.52
